system: B16; assay: Cytotoxicity against mouse B16 cells after 72 hrs by MTT assay; assay type: functional, cell-based; details: B16, 72 h
measurement-type: IC50

| molecule | IC50 |
| --- | --- |
| CC1(C)OC2=C(C(=O)C(=O)c3ccccc32)C1Nc1cccc(Br)c1 (centres undefined) | 0.48 µg/mL |
| COc1cccc2c1C(=O)c1c(O)c3c(c(O)c1C2=O)C[C@@](O)(C(=O)CO)C[C@@H]3O[C@H]1C[C@H](N)[C@H](O)[C@H](C)O1 | 0.03 µg/mL |
| CC1(C)OC2=C(C(=O)C(=O)c3ccccc32)C1Nc1cccc([N+](=O)[O-])c1 (centres undefined) | 0.43 µg/mL |

stdin: Could you share which IC50 value was measured for CC1(C)OC2=C(C(=O)C(=O)c3ccccc32)C1Nc1ccccc1 (centres undefined) ?
stdout: 0.74 µg/mL

---

Can you tell me EC50 for the items I'm about to list?
assay: Toxicity assessed as hemolytic activity against mouse erythrocyte; format: cell-based; details: mouse erythrocytes

See these solved cases before continuing.
| molecule | result |
| --- | --- |
| Cc1ccc(C)c(NC2C3=C(OC2(C)C)c2ccccc2C(=O)C3=O)c1 (centres undefined) | > 200 µg/mL |
| CC1(C)OC2=C(C(=O)C(=O)c3ccccc32)C1Nc1ccccc1 (centres undefined) | > 200 µg/mL |
| CC1(C)OC2=C(C(=O)C(=O)c3ccccc32)C1Nc1ccc(F)cc1 (centres undefined) | > 200 µg/mL |
| CC1(C)OC2=C(C(=O)C(=O)c3ccccc32)C1Nc1cccc(Br)c1 (centres undefined) | > 200 µg/mL |
| CC1(C)CC2=C(O1)c1ccccc1C(=O)C2=O [NOR-BETA-LAPACHONE] | > 200 µg/mL |

Items follow; give EC50 for each.
1. CC1(C)CCC2=C(O1)c1ccccc1C(=O)C2=O [LAPACHONE]
2. CC1(C)OC2=C(C(=O)c3ccccc3C2=O)C1Nc1ccccc1 (centres undefined)
3. CC1(C)OC2=C(C(=O)C(=O)c3ccccc32)C1Nc1cccc([N+](=O)[O-])c1 (centres undefined)

stdout:
1. > 200 µg/mL
2. > 200 µg/mL
3. > 200 µg/mL

stdin: Could you share which EC50 value was measured for CC1(C)OC2=C(C(=O)C(=O)c3ccccc32)C1Nc1cccc(Cl)c1 (centres undefined) ?
stdout: > 200 µg/mL

---

tested on: MDA-MB-435; assay: Cytotoxicity against human MDA-MB-435 cells after 72 hrs by MTT assay; assay type: functional, cell-based; details: MDA-MB-435, 72 h
measurement-type: IC50
// return the numeric value with its unit appended

| compound | IC50 |
| --- | --- |
| CC1(C)OC2=C(C(=O)C(=O)c3ccccc32)C1Nc1ccccc1 (stereo not given) | 0.3 µg/mL |
| CC1(C)CC2=C(O1)c1ccccc1C(=O)C2=O | 0.07 µg/mL |
| CC1(C)CCC2=C(O1)c1ccccc1C(=O)C2=O | 0.06 µg/mL |
| CC1(C)OC2=C(C(=O)c3ccccc3C2=O)C1Nc1ccccc1 (stereo not given) | 0.89 µg/mL |

Below: the item to evaluate.
stdin: Could you share which IC50 value was measured for CC1(C)OC2=C(C(=O)C(=O)c3ccccc32)C1Nc1cccc(Br)c1 (stereo not given) ?
stdout: 0.2 µg/mL
